assay: Intranasal absorption of peptides (FAD)in, intranasal vs intravenous antidiuretic effect; details: rat, 30 μl in nasal cavity; antidiuretic effect AUC vs intravenous
Numbered stars: 1 amine (or outer) side, 2 acyl side, 3 side chain; on linkers, the order of the positions; unused ones are H or OH. Bridge positions count the residues as written; N and C are the ends. Square brackets hold non-standard residues; d marks the D form. Peptide text beside a SMILES is read from it. Hyp = O=C(O)[C@@H]1C[C@@H](O)CN1; 2Thi = N[C@@H](Cc1cccs1)C(=O)O; d2Thi = N[C@H](Cc1cccs1)C(=O)O; Iva = CC[C@](C)(N)C(=O)O; X1 = O=C(CCC[*:2])[*:1]
Here, each record is paired with measured (FAD)in (intranasal absorption) data.
Response body: numeric value in %, unit text excluded.

Compound: CC(C)[C@@H]1NC(=O)[C@H](Cc2ccccc2)NC(=O)[C@@H](Cc2ccc(O)cc2)NC(=O)CCCSC[C@@H](C(=O)N2CCC[C@H]2C(=O)N[C@H](CCCNC(=N)N)C(=O)NCC(N)=O)NC(=O)[C@H](CC(N)=O)NC1=O [Ex. 3, reference compound] ([dY]FVNCP[dR]G-NH2; linker N-5 via X1)
(FAD)in (intranasal absorption) / %: 5

Bench note: what (FAD)in (intranasal absorption) did CSCC[C@@H]1NC(=O)[C@@H](Cc2cccs2)NC(=O)CCCSC[C@@H](C(=O)N2C[C@H](O)C[C@H]2C(=O)N[C@H](CCCNC(=N)N)C(=O)NCC(N)=O)NC(=O)[C@H](CC(N)=O)NC(=O)[C@H](C(C)C)NC1=O [Ex. 6] ([d2Thi]MVNC[Hyp][dR]G-NH2; linker N-5 via X1) show?
22

Which value of (FAD)in (intranasal absorption) has been reported for CC[C@]1(C)NC(=O)[C@H](Cc2cccs2)NC(=O)[C@@H](Cc2ccccc2)NC(=O)CCCSC[C@@H](C(=O)N2C[C@H](O)C[C@H]2C(=O)N[C@H](CCCNC(=N)N)C(=O)NCC(N)=O)NC(=O)[C@H](CC(N)=O)NC1=O [Ex. 1] ([dF][2Thi][Iva]NC[Hyp][dR]G-NH2; linker N-5 via X1) in the records?
42

----------
test: Intranasal absorption of peptides (FAD)in, intranasal vs intravenous antidiuretic effect; conditions: rat, 30 μl in nasal cavity; antidiuretic effect AUC vs intravenous
Numbered stars: 1 amine (or outer) side, 2 acyl side, 3 side chain; on linkers, the order of the positions; unused ones are H or OH. Bridge positions count the residues as written; N and C are the ends. Square brackets hold non-standard residues; d marks the D form. Peptide text beside a SMILES is read from it. Hyp = O=C(O)[C@@H]1C[C@@H](O)CN1; 2Thi = N[C@@H](Cc1cccs1)C(=O)O; d2Thi = N[C@H](Cc1cccs1)C(=O)O; Iva = CC[C@](C)(N)C(=O)O; X1 = O=C(CCC[*:2])[*:1]
Measure: (FAD)in (intranasal absorption) (%)
# unit: % | format: bare number

Compound: CC(C)[C@@H]1NC(=O)[C@H](Cc2cccs2)NC(=O)[C@@H](Cc2ccccc2)NC(=O)CCCSC[C@@H](C(=O)N2C[C@H](O)C[C@H]2C(=O)N[C@H](CCCNC(=N)N)C(=O)NCC(N)=O)NC(=O)[C@H](CC(N)=O)NC1=O [Ex. 2] ([dF][2Thi]VNC[Hyp][dR]G-NH2; linker N-5 via X1)
(FAD)in (intranasal absorption) [%]: 20
//
Compound: CC[C@]1(C)NC(=O)[C@H](Cc2cccs2)NC(=O)[C@@H](Cc2ccc(O)cc2)NC(=O)CCCSC[C@@H](C(=O)N2C[C@H](O)C[C@H]2C(=O)N[C@H](CCCNC(=N)N)C(=O)NCC(N)=O)NC(=O)[C@H](CC(N)=O)NC1=O [Ex. 5] ([dY][2Thi][Iva]NC[Hyp][dR]G-NH2; linker N-5 via X1)
(FAD)in (intranasal absorption) [%]: 17

// returns reported (FAD)in (intranasal absorption) for input CC[C@]1(C)NC(=O)[C@H](Cc2cccs2)NC(=O)[C@@H](Cc2cccs2)NC(=O)CCCSC[C@@H](C(=O)N2C[C@H](O)C[C@H]2C(=O)N[C@H](CCCNC(=N)N)C(=O)NCC(N)=O)NC(=O)[C@H](CC(N)=O)NC1=O [Ex. 4] ([d2Thi][2Thi][Iva]NC[Hyp][dR]G-NH2; linker N-5 via X1)
22

Source listed as patent US5698516A.
